Cited source for all entries: patent US5026858A

Here's what we have: Ki numbers for [3H]haloperidol binding, rat striatal membranes (Rattus norvegicus).
Counter-ions that a name gives are not always drawn.
Outcome Measure: Ki (nM)

I. COc1cc(N)c([N+](=O)[O-])cc1C(=O)NC1CCN(CCc2ccccc2)CC1
II. COc1cc(N)c(Cl)cc1C(=O)NC1CCN(Cc2ccccc2)CC1 [Clebopride hydrochloride, reference compound]
Q: Which of the two items, I and II , has the greater recorded Ki? Could you answer with the label of the item you picked?
Ans: II
(II: 25 nM, I: 10 nM)

---

# Experimental System: dopamine sensitive adenylate cyclase of rat straitum (Rattus norvegicus, UniProt P18901)
# Construct: adenylate cyclase of rat straitum; from tissue; host or cells: rat striatum
# Sequence (P18901 whole entry): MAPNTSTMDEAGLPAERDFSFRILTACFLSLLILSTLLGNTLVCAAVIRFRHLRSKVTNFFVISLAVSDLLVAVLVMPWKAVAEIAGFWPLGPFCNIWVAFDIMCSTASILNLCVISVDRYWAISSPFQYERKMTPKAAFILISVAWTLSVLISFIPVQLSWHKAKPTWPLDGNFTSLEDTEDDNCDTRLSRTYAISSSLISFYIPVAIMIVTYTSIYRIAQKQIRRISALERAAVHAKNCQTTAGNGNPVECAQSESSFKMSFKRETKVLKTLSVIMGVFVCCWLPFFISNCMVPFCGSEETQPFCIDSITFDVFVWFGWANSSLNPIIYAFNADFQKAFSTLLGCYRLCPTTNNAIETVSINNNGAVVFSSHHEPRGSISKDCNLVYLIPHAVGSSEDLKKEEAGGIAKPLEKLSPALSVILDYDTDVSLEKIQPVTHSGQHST
# Test Name: inhibition of dopamine sensitive adenylate cyclase of rat striatum
# Assay type: biochemical
Outcome Measure: Ki (nM)
Unit nM implied. Number only.

The compound listed as CCN(CC)CCNC(=O)c1cc(Cl)c(N)cc1OC [Metoclopramide, reference compound] has a reported Ki of 60

---

Listing: ED50 of selected compounds
# System: apomorphineinduced gnawing behaviour
# Test Name: inhibition of apomorphine-induced gnawing behaviour in the rat (oral)
# Format: in vivo
# Condition Summary: approximate ED50, Table 2, read-out: Antiapomorphine rat: approximate oral ED50 for inhibition of apomorphine-induced gnawing
Structures can show the parent of a compound that is named as a salt.
Unit mg/kg implied. Number only.

Use the examples below as a reference point.
COc1cc(N)c(Cl)cc1C(=O)NC1CCN(Cc2ccccc2)CC1 [Clebopride hydrochloride, reference compound]: 2.5
CCOc1cc(N)c([N+](=O)[O-])cc1C(=O)NC1CCN(CC2=CCC=CC2)CC1: 50
COc1cc(N)c([N+](=O)[O-])cc1C(=O)NC1CCN(CC2=CCC(C)=CC2)CC1: 35
COc1cc(N)c([N+](=O)[O-])cc1C(=O)NC1CCN(CC2=CCC=CC2)CC1: 60

The compound listed as `CCOc1cc(N)c([N+](=O)[O-])cc1C(=O)NC1CCN(CC2=CCC(C)=CC2)CC1` has a reported ED50 of 40

---

# Experimental System: dopamine sensitive adenylate cyclase of rat straitum (Rattus norvegicus, UniProt P18901)
# Construct: adenylate cyclase of rat straitum; from tissue; host or cells: rat striatum
# Test Name: inhibition of dopamine sensitive adenylate cyclase of rat striatum
# Assay type: biochemical
# Condition Summary: rat striatum; Table 1; read-out: Dopamine sensitive aden-cyclase: approximate KI
pKi: −log10 of the molar value. Counter-ions that a name gives are not always drawn.
Outcome Measure: pKi

COc1cc(N)c([N+](=O)[O-])cc1C(=O)NC1CCN(Cc2ccccc2)CC1: 8.30

P. COc1cc(N)c(Cl)cc1C(=O)NC1CCN(Cc2ccccc2)CC1 [Clebopride hydrochloride, reference compound]
Q. COc1cc(N)c([N+](=O)[O-])cc1C(=O)NC1CCN(CCc2ccccc2)CC1
Q: I would appreciate it if you could say which entry, P or Q , has the lower pKi value. Could you answer with the label of the item you picked?
Ans: P
